# Tested on: Zika virus NS2B-NS3 protease (linked construct)
# assay details: Primary screen NINDS Rhodamine qHTS for Zika virus inhibitors (AID 1347160); note: nearly all actives have a fitted effect of over 55% in size
# protocol conditions: purified NS2B-NS3 protease, Rhodamine110 substrate fluorescence; series mostly up to 57.1 µM
Records with an inconclusive call do not appear. Active and inactive are the calls of the source. Calls come from the whole dose curve; as a rule, active = well fitted inhibition curve with a large enough effect; inconclusive = small, poorly fitted or top-dose-only effect; inactive = no such curve, though single readings can be large or run the other way.
Output constraint: value belongs to Yes for active, No for inactive

| molecule | label class |
| --- | --- |
| CC[C@H]1C2CC3[C@@H]4N(C)c5ccccc5[C@]45C[C@@H]([C@H]2[C@H]5O)N3[C@H]1O | No |
| CC1=CC(=O)C2=C(C)C[C@H](O)[C@@H]3[C@H](OC(=O)[C@@H]3C)[C@@H]12 | Yes |
| CC[C@@H](C)[C@H]1C(=O)O[C@H](C(C)C)C(=O)N(C)[C@@H](C(C)C)C(=O)O[C@H](C(C)C)C(=O)N(C)[C@@H](C(C)C)C(=O)O[C@H](C(C)C)C(=O)N1C | No |
| Cc1ccc(-n2nccn2)c(C(=O)N2CCN(c3nc4cc(Cl)ccc4o3)CCC2C)c1 (centres undefined) | No |
| CO[C@H]1[C@@H](O)[C@@H](C)O[C@@H](O[C@@H]2C=C3C(OC(C)=O)CC4(O)C(CC[C@]5(C)[C@@H](C6=CC(=O)OC6)CC[C@]45O)[C@@]3(C)CC2)[C@@H]1O (some centres undefined) | No |
| CN=C(NS(=O)(=O)c1ccc(Cl)cc1)N1C[C@H](c2ccccc2)C(c2ccc(Cl)cc2)=N1 | No |
| C[C@@H]1CC[C@@H](c2ccoc2)N2C[C@@]3(CC[C@@H]12)CS[C@@]1(CC[C@H]2[C@H](C)CC[C@@H](c4ccoc4)N2[C@@H]1O)C3 | Yes |
| COC1CC(O[C@H]2CC[C@]3(C=O)C4CC[C@]5(C)[C@@H](C6=CC(=O)OC6)CC[C@]5(O)[C@@H]4CC[C@@H]3C2)OC(C)C1O[C@@H]1O[C@H](CO)[C@@H](O[C@@H]2O[C@H](CO)[C@@H](O)[C@H](O)[C@H]2O)[C@H](O)[C@H]1O (some centres undefined) | No |

Now consider a different molecule.
Ask: Record request — test call for CC1=CC(=O)[C@@H](O)[C@]2(C)C3[C@@H](O)[C@@H]4OC(=O)[C@@H]([C@H]4C)[C@]3(C)C(=O)[C@H](O)[C@@H]12 (some centres undefined)
Result: No

====

# system name: Rap guanine nucleotide exchange factor 3 (Homo sapiens) (UniProt O95398)
# Sequence (O95398 whole entry, looked up): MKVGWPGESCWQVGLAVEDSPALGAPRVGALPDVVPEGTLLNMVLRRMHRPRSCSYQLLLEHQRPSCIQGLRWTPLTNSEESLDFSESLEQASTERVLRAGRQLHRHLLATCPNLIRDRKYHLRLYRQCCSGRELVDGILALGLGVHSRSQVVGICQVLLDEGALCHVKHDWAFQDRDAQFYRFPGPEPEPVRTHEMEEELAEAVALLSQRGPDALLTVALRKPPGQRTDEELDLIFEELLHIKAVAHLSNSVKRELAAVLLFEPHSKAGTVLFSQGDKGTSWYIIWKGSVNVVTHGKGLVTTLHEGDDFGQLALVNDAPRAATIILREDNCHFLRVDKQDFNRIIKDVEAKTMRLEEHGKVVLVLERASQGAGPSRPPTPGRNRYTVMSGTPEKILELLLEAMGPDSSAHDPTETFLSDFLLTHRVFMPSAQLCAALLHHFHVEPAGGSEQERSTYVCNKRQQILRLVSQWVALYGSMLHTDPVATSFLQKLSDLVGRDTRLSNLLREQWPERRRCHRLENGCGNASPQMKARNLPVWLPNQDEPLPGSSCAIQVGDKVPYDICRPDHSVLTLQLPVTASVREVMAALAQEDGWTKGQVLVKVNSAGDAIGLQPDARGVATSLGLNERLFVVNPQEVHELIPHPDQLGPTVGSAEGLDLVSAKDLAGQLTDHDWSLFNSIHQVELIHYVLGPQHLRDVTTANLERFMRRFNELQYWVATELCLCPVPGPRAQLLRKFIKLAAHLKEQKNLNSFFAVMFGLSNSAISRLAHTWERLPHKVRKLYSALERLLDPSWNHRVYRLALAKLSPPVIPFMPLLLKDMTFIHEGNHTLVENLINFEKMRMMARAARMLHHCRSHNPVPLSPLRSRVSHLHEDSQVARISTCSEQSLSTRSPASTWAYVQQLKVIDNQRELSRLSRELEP
# assay details: Confirmatory qHTS for antagonist of cAMP-regulated guanine nucleotide exchange factor 3 (EPAC1) (AID 1645880); note: nearly all actives have a fitted effect of over 55% in size
# protocol conditions: EPAC1 Rap1B-BODIPY-GDP exchange, fluorescence; series mostly up to 115 µM
Results filed as inconclusive are left out. Calls of active or inactive are those of the source. Calls come from the whole dose curve; as a rule, active = well fitted inhibition curve with a large enough effect; inconclusive = small, poorly fitted or top-dose-only effect; inactive = no such curve, though single readings can be large or run the other way.
Output constraint: value belongs to T = active, F = inactive

Examples with answers:
| compound | label class |
| --- | --- |
| CCCn1c(C)c(C(=O)c2cccc3ccccc23)c2ccccc21 | F |
| CC(C)=CCCC1(C)C=Cc2c(O)c3c(c(CC=C(C)C)c2O1)OC12C(=CC4CC1C(C)(C)OC2(C/C=C(/C)C(=O)O)C4O)C3=O (centres undefined) | T |
| CC(C)(O)[C@H]1O[C@@H]2CC[C@]3(C)[C@@]4(C)c5[nH]c6ccccc6c5C[C@@H]4CC[C@]3(O)C2=CC1=O | F |

Now consider a different compound.
Ask: Record request — test call for CN1Cc2ccccc2[C@@H]2c3cccc4[nH]cc(c34)C[C@H]21
Result: F
